system: Staphylococcus aureus; experiment: antibacterial activity in vitro, dilution in liquid medium method (MIC/MBC); type: cell-based; conditions: 18 hours, 37° C., read-out: minimum inhibiting concentration (MIC)
Give MIC for every item shown.

Indicate the recorded MIC value for this compound: CCn1cc(C(=O)O)c(=O)c2ccc3cnn(CC)c3c21
> 10 µg/mL

Indicate the recorded MIC value for this compound: CCn1cc(C(=O)O)c(=O)c2c3[nH]ncc3ccc21
> 10 µg/mL

Indicate the recorded MIC value for this compound: CCn1cc(C(=O)O)c(=O)n2nc3ccccc3c12
> 100 µg/mL

Indicate the recorded MIC value for this compound: CCn1cc(C(=O)O)c(=O)c2c3nn(C)cc3ccc21
> 100 µg/mL

Indicate the recorded MIC value for this compound: CCn1cc(C(=O)O)c(=O)c2c3cnn(Cc4ccccc4)c3ccc21
> 10 µg/mL

Indicate the recorded MIC value for this compound: C=Cn1cc(C(=O)O)c(=O)c2c3[nH]ncc3ccc21
> 10 µg/mL
